Tested on: OVCAR-5 ovarian
Test details: NCI-60 one-dose screen, 48 h (100 = growth as untreated, 0 = no growth, -100 = all killed)
Condition summary: 10 µM unless noted
The panel holds about 83,000 compounds, 20% with a hit somewhere; the sample as a whole holds those more often.
Measured property: growth (%)
Kindly answer with a numeric value in %, unit omitted.

Examples with answers:
Compound | growth [%]
CC(C)C(=O)Nc1nc2c(s1)CCCc1ccn(S(=O)(=O)c3ccccc3)c1-2 | 99.2
COc1cc(NC(C)CCCN2C(=O)c3ccccc3C2=O)c2nccc(C)c2c1OC (configuration not stated) | 110
Cc1cc(NC(=O)c2cccc(C(F)(F)F)c2)ccc1-n1ccc2c(NC(=O)c3ccccc3)nccc21 | 98.3
CCC1S/C(=N\N=C(/C)c2cc3ccccc3o2)N(c2ccccc2)C1=O (configuration not stated) | 106
CCc1c(C)c2cc3nc(NCc4ccccc4)oc3c(C)c2oc1=O | 89.7

-- ask Answer with the recorded growth for the compound listed here: "O=C(Nc1ccc(-n2ccc3c(NC(=O)c4ccccc4)nccc32)cc1)Nc1cccc(C(F)(F)F)c1"
-- reply 81.8

-- ask Answer with the recorded growth for the compound listed here: COc1cc(NC(C)CCCN2C(=O)c3ccccc3C2=O)c2nc(C)ccc2c1OC (configuration not stated)
-- reply 100

-- ask Answer with the recorded growth for the compound listed here: "C=C1C(=O)O[C@H]2[C@H]1CC/C(COC(=O)n1ccnc1C)=C\CC[C@@]1(C)O[C@@H]21"
-- reply 101

-- ask Answer with the recorded growth for the compound listed here: "c1cncc(-c2nc3ccccc3[nH]2)c1"
-- reply 86.5

-- ask Answer with the recorded growth for the compound listed here: "C=C1C(=O)O[C@H]2[C@H]1CC/C(COC(=O)CCCC(=O)OC/C1=C/CC[C@@]3(C)O[C@H]3[C@H]3OC(=O)C(=C)[C@@H]3CC1)=C\CC[C@@]1(C)O[C@@H]21"
-- reply 2.2

-- ask Answer with the recorded growth for the compound listed here: "COC(=O)c1oc2c(C(C)=O)c(OCCN3CCCCC3)ccc2c1C"
-- reply 107

-- ask Answer with the recorded growth for the compound listed here: "Cc1ccc2[nH]c3nc4cccnc4c(C)c3c2c1"
-- reply 59.6

====

Tested on: HCT-116 colon
Test details: NCI-60 one-dose screen, 48 h (100 = growth as untreated, 0 = no growth, -100 = all killed)
Condition summary: 10 µM unless noted
Method: Growth inhibition of the HCT-116 human tumor cell line is measured as a screen for anti-cancer activity. Cells are grown in 96 well plates and exposed to the test compound for 48 hours. Compounds are tested at a single concentration, which is 10^-5 M for most compounds. The reported endpoint is percent growth (GI% or GIPRCNT), where numbers from 0 - 100% represent growth inhibition, and numbers from -100% - 0 represent cell death. For example, a value of 40 represents 60% growth inhibition. […]
Compounds without any hit were thinned out: in the full panel of roughly 83,000, 20% have a hit.
Below is a list of entries, each paired with its recorded growth value.
Kindly answer with a numeric value in %, unit omitted.

Examples with answers:
Smiles string | Measurement
COc1ccccc1P(c1ccccc1OC)c1ccccc1OC | 94.2
COc1ccc(CNc2nc3ccccc3c3c(=O)c4ccccc4sc23)cc1OC | 68.8

Switching to the query record.
-- ask Answer with the recorded growth for the compound listed here: "Cc1c(Cl)ccc2c(C(=O)Cl)cc(-c3ccccc3)nc12"
-- reply 102
